system: 565232-114-T-J1-PDC complex spheroid viability; test: Anticancer human tumor 565232-114-T-J1-PDC patient-derived bladder carcinoma cell line growth inhibition [CLK]; conditions: second compound 0.0316 µM; first compound 0.01 µM; stronger effect = lower value
Assign labels as follows, please: satisfied for viability, T/C below 80%; not satisfied for viability, T/C equal to or exceeding 80%.

[in] Is 80% strictly greater than the molecule's reported viability, T/C? molecule: CCc1c2c(nc3ccc(O)cc13)-c1cc3c(c(=O)n1C2)COC(=O)[C@]3(O)CC + CNC(=O)c1ccc(Nc2nc(OC3CCCC3)c3c(-c4ccc5nc(C)oc5c4)c[nH]c3n2)c(OC)c1
[out] satisfied

[in] Is 80% strictly greater than the molecule's reported viability, T/C? molecule: Cn1ncnc1[C@H]1c2n[nH]c(=O)c3cc(F)cc(c23)N[C@@H]1c1ccc(F)cc1 + CNC(=O)c1ccc(Nc2nc(OC3CCCC3)c3c(-c4ccc5nc(C)oc5c4)c[nH]c3n2)c(OC)c1
[out] not satisfied

[in] Is 80% strictly greater than the molecule's reported viability, T/C? molecule: CCc1c2c(nc3ccc(O)cc13)-c1cc3c(c(=O)n1C2)COC(=O)[C@]3(O)CC + CN1CCN(c2cc(C(=O)Nc3cc4cc(-c5cnn(C)c5)ccc4cn3)ccn2)CC1
[out] satisfied

----------
system: 565232-114-T-J1-PDC complex spheroid viability; experiment: Anticancer human tumor 565232-114-T-J1-PDC cell line growth inhibition [CLK]; conditions: second compound 0.316 µM; first compound 0.01 µM; stronger effect = lower value;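 also: spheroids exposed to compounds for 7 days before readout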
Assign labels as follows, please: Y for viability, T/C below 20%; N for viability, T/C equal to or exceeding 20%.

[in] Is 20% strictly greater than the molecule's reported viability, T/C? molecule: COc1c(OCCCN2CCOCC2)ccc2c3n(c(=NC(=O)c4cnc(N)nc4)nc12)CCN3 + CNC(=O)c1ccc(Nc2nc(OC3CCCC3)c3c(-c4ccc5nc(C)oc5c4)c[nH]c3n2)c(OC)c1
[out] N

[in] Is 20% strictly greater than the molecule's reported viability, T/C? molecule: CCc1c2c(nc3ccc(O)cc13)-c1cc3c(c(=O)n1C2)COC(=O)[C@]3(O)CC + CN1CCN(c2cc(C(=O)Nc3cc4cc(-c5cnn(C)c5)ccc4cn3)ccn2)CC1
[out] Y

[in] Is 20% strictly greater than the molecule's reported viability, T/C? molecule: CCN1CCN(Cc2ccc(Nc3ncc(F)c(-c4cc(F)c5nc(C)n(C(C)C)c5c4)n3)nc2)CC1 + CNC(=O)c1ccc(Nc2nc(OC3CCCC3)c3c(-c4ccc5nc(C)oc5c4)c[nH]c3n2)c(OC)c1
[out] N

[in] Is 20% strictly greater than the molecule's reported viability, T/C? molecule: CCc1c2c(nc3ccc(O)cc13)-c1cc3c(c(=O)n1C2)COC(=O)[C@]3(O)CC + CNC(=O)c1ccc(Nc2nc(OC3CCCC3)c3c(-c4ccc5nc(C)oc5c4)c[nH]c3n2)c(OC)c1
[out] Y

[in] Is 20% strictly greater than the molecule's reported viability, T/C? molecule: Cn1ncnc1[C@H]1c2n[nH]c(=O)c3cc(F)cc(c23)N[C@@H]1c1ccc(F)cc1 + CNC(=O)c1ccc(Nc2nc(OC3CCCC3)c3c(-c4ccc5nc(C)oc5c4)c[nH]c3n2)c(OC)c1
[out] N

[in] Is 20% strictly greater than the molecule's reported viability, T/C? molecule: CCN1CCN(Cc2ccc(Nc3ncc(F)c(-c4cc(F)c5nc(C)n(C(C)C)c5c4)n3)nc2)CC1 + CN1CCN(c2cc(C(=O)Nc3cc4cc(-c5cnn(C)c5)ccc4cn3)ccn2)CC1
[out] N

[in] Is 20% strictly greater than the molecule's reported viability, T/C? molecule: Cn1ncnc1[C@H]1c2n[nH]c(=O)c3cc(F)cc(c23)N[C@@H]1c1ccc(F)cc1 + CN1CCN(c2cc(C(=O)Nc3cc4cc(-c5cnn(C)c5)ccc4cn3)ccn2)CC1
[out] N
